subject-of-test: UniProt P21453
Sequence (P21453 whole entry): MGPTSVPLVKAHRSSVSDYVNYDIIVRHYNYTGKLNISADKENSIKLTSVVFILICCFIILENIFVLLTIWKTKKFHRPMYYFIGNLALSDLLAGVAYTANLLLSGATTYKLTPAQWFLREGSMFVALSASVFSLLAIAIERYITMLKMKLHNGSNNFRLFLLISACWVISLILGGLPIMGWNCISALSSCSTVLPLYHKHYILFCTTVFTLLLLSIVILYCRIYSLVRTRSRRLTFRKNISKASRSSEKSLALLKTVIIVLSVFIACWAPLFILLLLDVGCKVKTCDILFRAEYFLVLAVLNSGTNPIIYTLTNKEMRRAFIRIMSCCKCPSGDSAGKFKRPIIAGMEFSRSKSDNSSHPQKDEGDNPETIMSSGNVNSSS
assay-method-text: Receptor [35S] GTPγS Binding Assay, S1P1
experimental-setup: membranes from S1P1/CHO cells
pEC50: −log10 of the molar value.
measured-metric: pEC50

molecule: C/C(=N\OCc1ccc(C2CCCCC2)c(C(F)(F)F)c1)c1ccc(C(=O)N2CCCC(N)(COP(=O)(O)O)C2)cc1 (single isomer, unassigned) [Example 67]
measured-metric: pEC50
readout-number: 6.12
--
molecule: C/C(=N\OCc1ccc(C2CCCCC2)c(C(F)(F)F)c1)c1ccc(C(=O)N2CCC(N)(COP(=O)(O)O)C2)cc1 (single isomer, unassigned) [Example 60]
measured-metric: pEC50
readout-number: 6.36
--
molecule: CC(=NOCc1ccc(C(F)(F)F)cc1)c1ccc([C@@H]2CC[C@](N)(COP(=O)(O)O)C2)cc1
measured-metric: pEC50
readout-number: 8.25
--
molecule: CC(=NOCCOc1ccccc1)c1ccc([C@@H]2CC[C@](N)(COP(=O)(O)O)C2)cc1
measured-metric: pEC50
readout-number: 7.95
--
molecule: CC/C(=N\OCCCc1ccccc1)c1ccc(C(=O)N2CCC(N)(COP(=O)(O)O)C2)cc1 (single isomer, unassigned) [Example 64]
measured-metric: pEC50
readout-number: 6.30
--
molecule: C/C(=N\OCc1ccc(C2CCCCC2)c(C(F)(F)F)c1)c1ccc(S(=O)(=O)N2CCC(N)(COP(=O)(O)O)CC2)cc1
measured-metric: pEC50
readout-number: 6.39

Source of measurements: patent US11059784B2
